Reference for the values: patent US12466813B2

# target: RING1B-BMI1 (Homo sapiens)
# protocolSummary: KD classes of Table A (direct binding to Ring1B-Bmi1)
# recordedConditions: class given in Table A
measuredAttribute: Kd

Take a look at these entries with their results.
C#CCCCCC(=O)NCCn1ccc2c(-c3c(C(=O)O)[nH]c(-c4cc(F)cc5[nH]ccc45)c3C(C)C)cccc21
< 20 µM
Cc1cnc2[nH]ccc2c1-c1c(C(=O)O)[nH]c(-c2cc(F)cc3[nH]ccc23)c1C(C)C
< 20 µM
CCc1c(-c2c(OC)cccc2OC)[nH]c(C(=O)O)c1-c1ccc(OC)cc1Cl
> 100 µM
CCc1c(-c2cccc3[nH]ccc23)[nH]c(C(=O)O)c1-c1ccc(OC)cc1Br
< 20 µM
CC(C)c1c(-c2cc(F)cc3[nH]ccc23)[nH]c(C(=O)O)c1-c1cc(C(=O)NCc2nccs2)cc2[nH]ccc12
< 20 µM

Recorded Kd for `CC(C)c1c(-c2cc(F)cc3[nH]ccc23)[nH]c(C(=O)O)c1-c1cc(C(F)(F)F)cc2c1ccn2CC(=O)O` , please?
< 20 µM

Same thing, different molecule: `CCc1c(-c2cccc3[nH]ccc23)[nH]c(C(=O)O)c1CCc1ccccc1`
50 to 100 µM

How about this molecule: `CCn1ccc2cc(-c3[nH]c(C(=O)O)c(-c4c(Cl)ccc5[nH]ccc45)c3C(C)C)ccc21`
< 20 µM

What do we get for `CC(C)c1c(-c2cc(F)cc3[nH]ccc23)[nH]c(C(=O)O)c1-c1c(Cl)ccc2[nH]ccc12` ?
< 20 µM

What do we get for `CC(C)c1c(-c2cc(F)cc3[nH]ccc23)[nH]c(C(=O)O)c1-c1cccc2[nH]c(CO)cc12` ?
< 20 µM

Then what about the molecule `COCCC(=O)NCCn1ccc2c(-c3c(C(=O)O)[nH]c(-c4cc(F)cc5[nH]ccc45)c3C(C)C)cc(OC)cc21` ?
< 20 µM

Then `CC(C)c1c(-c2cc(F)cc3[nH]ccc23)[nH]c(C(=O)O)c1-c1cccc2[nH]ncc12` ?
< 20 µM

Continue with `Cc1cc(-c2cccc3[nH]ccc23)[nH]c1C(=O)O`
> 100 µM

Moving on to `COc1cc(-c2c(C(=O)O)[nH]c(-c3cc(F)cc4[nH]ccc34)c2C(C)C)c2cc(C)[nH]c2c1`
< 20 µM

What about this molecule? `CC(C)c1c(-c2cc(F)cc3[nH]ccc23)[nH]c(C(=O)O)c1-c1cccc2[nH]c(-c3ccccc3)cc12`
< 20 µM

---

# target: RING1B-BMI1 (Homo sapiens)
# Sequence (Q99496 1-336): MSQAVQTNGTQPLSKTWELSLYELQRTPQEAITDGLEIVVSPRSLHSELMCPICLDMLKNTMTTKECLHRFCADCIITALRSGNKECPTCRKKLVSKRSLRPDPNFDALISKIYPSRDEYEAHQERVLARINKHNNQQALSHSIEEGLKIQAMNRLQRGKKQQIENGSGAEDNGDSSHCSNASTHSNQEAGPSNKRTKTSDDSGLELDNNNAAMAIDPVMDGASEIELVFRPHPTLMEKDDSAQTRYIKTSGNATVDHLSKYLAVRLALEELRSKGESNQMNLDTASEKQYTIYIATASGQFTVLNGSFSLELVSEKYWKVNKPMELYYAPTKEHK
# Sequence (P35226 1-326 partner): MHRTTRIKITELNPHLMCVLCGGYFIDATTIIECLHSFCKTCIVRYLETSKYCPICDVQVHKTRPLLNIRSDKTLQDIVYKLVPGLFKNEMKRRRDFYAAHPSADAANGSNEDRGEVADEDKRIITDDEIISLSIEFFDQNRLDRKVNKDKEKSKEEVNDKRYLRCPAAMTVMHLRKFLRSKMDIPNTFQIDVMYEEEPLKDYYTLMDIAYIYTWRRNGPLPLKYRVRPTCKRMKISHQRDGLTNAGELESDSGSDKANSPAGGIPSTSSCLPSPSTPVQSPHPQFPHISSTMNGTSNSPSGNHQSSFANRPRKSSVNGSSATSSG
# protocolSummary: KD classes of Table A (direct binding to Ring1B-Bmi1)
# recordedConditions: class given in Table A
Consider the following compounds and their measured Kd readings.

Cc1cc(C(=O)O)[nH]c1-c1cccc2c1ccn2C [compound 116]
> 100 µM
CC(C)c1c(-c2cc(F)cc3[nH]ccc23)[nH]c(C(=O)O)c1-c1cc(C(F)(F)F)cc2[nH]ccc12 [compound 43]
< 20 µM

For the compound shown here, COc1ccc(-c2ccc(C(=O)O)[nH]2)cc1 [compound 157] , give the reported Kd.
> 100 µM

Now the same for CC(C)c1c(-c2cccc3c(N)c[nH]c23)[nH]c(C(=O)O)c1-c1cccc2[nH]ccc12 [compound 223]
< 20 µM

Now consider CC(C)c1c(-c2cc(F)cc3[nH]ccc23)[nH]c(C(=O)O)c1-c1cc(OC2CCC2)cc2[nH]ccc12 [compound 235] .
< 20 µM

Lookup CC(C)c1c(-c2cc(F)cc3[nH]ccc23)[nH]c(C(=O)O)c1-c1c(Cl)cnc2[nH]ccc12 [compound 245]
< 20 µM

Here is the next compound: CC(C)c1c(-c2cc(F)cc3[nH]ccc23)[nH]c(C(=O)O)c1-c1cccc2[nH]c(CS(C)(=O)=O)cc12 [compound 230]
< 20 µM

Now consider CC(C)c1c(-c2cc(F)cc3[nH]ccc23)[nH]c(CS(N)(=O)=O)c1-c1cccc2[nH]ccc12 [compound 219] and answer again.
< 20 µM

---

# target: RING1B-BMI1 (Homo sapiens)
# Sequence (Q99496 1-336): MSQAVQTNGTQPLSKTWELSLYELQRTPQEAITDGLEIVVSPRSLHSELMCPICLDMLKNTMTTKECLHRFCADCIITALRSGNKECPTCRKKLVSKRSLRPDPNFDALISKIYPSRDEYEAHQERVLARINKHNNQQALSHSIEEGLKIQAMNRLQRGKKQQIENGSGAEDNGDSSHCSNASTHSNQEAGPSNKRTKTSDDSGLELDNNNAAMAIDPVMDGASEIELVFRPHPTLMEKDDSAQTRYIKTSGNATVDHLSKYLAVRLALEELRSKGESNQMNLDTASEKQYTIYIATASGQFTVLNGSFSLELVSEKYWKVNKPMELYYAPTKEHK
# Sequence (P35226 1-326 partner): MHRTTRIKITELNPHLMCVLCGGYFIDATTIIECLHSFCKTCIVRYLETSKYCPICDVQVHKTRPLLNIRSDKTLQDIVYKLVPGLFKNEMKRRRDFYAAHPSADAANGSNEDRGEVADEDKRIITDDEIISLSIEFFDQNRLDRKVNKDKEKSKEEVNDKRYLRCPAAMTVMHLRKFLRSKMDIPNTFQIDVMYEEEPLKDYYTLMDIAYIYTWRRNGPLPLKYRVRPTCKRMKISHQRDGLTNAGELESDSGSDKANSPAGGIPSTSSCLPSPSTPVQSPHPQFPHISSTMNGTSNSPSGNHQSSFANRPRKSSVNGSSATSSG
# protocolSummary: KD classes of Table A (direct binding to Ring1B-Bmi1)
# recordedConditions: class given in Table A
measuredAttribute: Kd

Dear colleague, I am looking for the recorded Kd of the following compound: `O=C(O)c1ccc(-c2ccccc2O)[nH]1`
> 100 µM

---

# target: RING1B-BMI1 (Homo sapiens, UniProt Q99496)
# Sequence (Q99496 1-336): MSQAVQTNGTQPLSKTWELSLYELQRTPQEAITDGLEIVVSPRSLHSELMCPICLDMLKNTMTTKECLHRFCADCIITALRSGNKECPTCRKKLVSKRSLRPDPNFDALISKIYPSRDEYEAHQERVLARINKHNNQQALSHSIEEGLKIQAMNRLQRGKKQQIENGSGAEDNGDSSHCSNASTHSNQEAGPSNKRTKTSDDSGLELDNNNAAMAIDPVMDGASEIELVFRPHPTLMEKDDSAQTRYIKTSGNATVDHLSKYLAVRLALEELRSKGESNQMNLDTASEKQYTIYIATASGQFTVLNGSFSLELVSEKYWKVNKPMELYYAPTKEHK
# Sequence (P35226 1-326 partner): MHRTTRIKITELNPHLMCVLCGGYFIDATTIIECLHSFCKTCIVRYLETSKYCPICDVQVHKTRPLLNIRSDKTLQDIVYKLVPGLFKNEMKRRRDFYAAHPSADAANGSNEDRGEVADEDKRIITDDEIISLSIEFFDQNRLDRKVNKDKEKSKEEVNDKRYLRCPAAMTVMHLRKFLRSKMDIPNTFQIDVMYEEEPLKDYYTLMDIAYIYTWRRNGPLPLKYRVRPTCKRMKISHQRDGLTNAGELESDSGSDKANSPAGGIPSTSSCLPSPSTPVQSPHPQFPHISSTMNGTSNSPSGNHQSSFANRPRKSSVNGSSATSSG
# protocolSummary: KD classes of Table A (direct binding to Ring1B-Bmi1)
# recordedConditions: class given in Table A
measuredAttribute: Kd

Worked set:
CC(C)c1c(-c2cc(F)cc3[nH]ccc23)[nH]c(C(=O)O)c1-c1ccnc2[nH]c(-c3ccccc3)cc12
< 20 µM
CCc1c(-c2cccc3[nH]ccc23)[nH]c(C(=O)O)c1-c1ccccc1C(F)(F)F
20 to 50 µM
CCc1c(-c2cccc3[nH]ccc23)[nH]c(C(=O)O)c1-c1c(Cl)ccc2[nH]ccc12
< 20 µM

Okay, now this compound:
Reported Kd, compound `CCOc1ccc(-c2c(C(=O)O)[nH]c(-c3cccc4[nH]ccc34)c2CC)c(Cl)c1` : ____
< 20 µM
